ASSAYED SYSTEM: Neuropeptides B/W receptor type 1 (Homo sapiens) (UniProt P48145)
Sequence (P48145 whole entry, looked up): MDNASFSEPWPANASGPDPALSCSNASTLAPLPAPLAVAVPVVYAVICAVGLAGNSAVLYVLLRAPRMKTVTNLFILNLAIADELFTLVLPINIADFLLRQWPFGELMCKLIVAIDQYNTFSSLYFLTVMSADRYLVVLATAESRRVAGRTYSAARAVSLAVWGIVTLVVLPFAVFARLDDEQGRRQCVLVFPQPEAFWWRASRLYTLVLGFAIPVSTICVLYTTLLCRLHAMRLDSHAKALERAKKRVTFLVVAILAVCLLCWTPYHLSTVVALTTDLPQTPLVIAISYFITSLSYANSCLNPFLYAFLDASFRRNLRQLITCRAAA
ASSAY NAME: GPR7 receptor antagonists, primary screen, cell-based, fluorescence, single concentration (AID 1861);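 note: cells stimulated with the agonist NPW; 0% = agonist with vehicle and 100% = vehicle without agonist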
CONDITION INFO: GPR7-expressing cells, fluorescence antagonist assay; at 4.4 µM; hits give high values
Hit rate of the full screen: of about 290,000 compounds, about 3,100 (1.1%) were called active. Many of the other results were omitted from the sample, so actives are more common in it than they were.
ENDPOINT: inhibition (%)
State the answer as a number, implicitly in %.

O=C(NCCCNc1ccc([N+](=O)[O-])cc1Cl)c1ccccc1F | 5.46
Cc1cccc(NC(=S)NCCc2ccc(Cl)cc2)c1C | -3.82
COc1ccc(C2CC(=O)NC(=O)C2)cc1 | 23

Next:
Kindly note the recorded inhibition for `Cc1ccc(C(=O)NC(=S)Nc2ccccc2C)cc1` , which is -4.66
